Biological target: CB2 receptors (Mus musculus)
Construct: the complete brain (excluding the cerebellum) and the spleen were quickly dissected and kept in ice; from tissue; host or cells: mouse spleen, membrane preparation
Sequence (P47936 whole entry): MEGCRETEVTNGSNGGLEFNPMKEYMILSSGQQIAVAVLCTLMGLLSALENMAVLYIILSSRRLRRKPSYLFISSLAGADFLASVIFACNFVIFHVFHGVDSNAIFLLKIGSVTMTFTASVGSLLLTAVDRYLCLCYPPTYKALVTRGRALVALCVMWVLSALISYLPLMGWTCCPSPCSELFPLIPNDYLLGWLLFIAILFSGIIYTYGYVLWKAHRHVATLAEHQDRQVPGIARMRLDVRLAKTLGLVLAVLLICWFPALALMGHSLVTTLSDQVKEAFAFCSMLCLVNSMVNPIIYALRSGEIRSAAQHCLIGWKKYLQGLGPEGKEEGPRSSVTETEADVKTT
Experiment: radioreceptor binding, displacement of [3H]-CP-55,940, CB2 (spleen)
Settings: mouse spleen membranes, 1 nM [3H]-CP55.940, 1 hour at 30° C.; read-out: CB2 (spleen) Ki
Procedure: The affinity of the compounds towards the CB1 and CB2 cannabinoidergic receptors was evaluated in vitro by radioreceptor binding studies using the following method. The technique of the receptor binding allows to establish if, and with which affinity and specificity, a specific compound binds to a particular receptor. […] The amount of radioactivity present in the receptor-compound complex allows furthermore to stimate with great accuracy the amount of compound bound to the receptor. […]
Collected Ki values appear next to each entry.
quantityKind: Ki

| molecule | testedTarget | recordedResult |
| --- | --- | --- |
| CC1(C)C2CCC(CNC(=O)c3nn(-c4ccc(Cl)cc4Cl)c4c3CCCc3ccc(Cl)cc3-4)C1C2 (centres unmarked) | CB2 receptors (Mus musculus) | 23.3 nM |
| CC1(C)C2CCC(CNC(=O)c3nn(-c4ccc(Cl)cc4Cl)c4c3CCOc3cc(Cl)ccc3-4)C1C2 (centres unmarked) | CB2 receptors (Mus musculus) | 325 nM |
| Cc1ccc2c(c1)oc1c(C(=O)N[C@H]3C[C@@H](C)CC[C@@H]3C(C)C)nn(-c3ccc(Cl)cc3Cl)c12 | CB2 receptors (Mus musculus) | 2.3 nM |
| CC1(C)C2CCC(CNC(=O)c3nn(-c4ccc(Cl)cc4Cl)c4c3CCCc3cc(Cl)ccc3-4)C1C2 (centres unmarked) | CB2 receptors (Mus musculus) | 19.6 nM |
| Cc1ccc2c(c1)Cc1c(C(=O)NCC3CCC4CC3C4(C)C)nn(-c3ccc(Cl)cc3Cl)c1-2 (centres unmarked) | CB2 receptors (Mus musculus) | 2.3 nM |

* * *

Collected pKi values appear next to each entry.
molecular target: CB1 receptors (Mus musculus)
Sequence (P47746 whole entry): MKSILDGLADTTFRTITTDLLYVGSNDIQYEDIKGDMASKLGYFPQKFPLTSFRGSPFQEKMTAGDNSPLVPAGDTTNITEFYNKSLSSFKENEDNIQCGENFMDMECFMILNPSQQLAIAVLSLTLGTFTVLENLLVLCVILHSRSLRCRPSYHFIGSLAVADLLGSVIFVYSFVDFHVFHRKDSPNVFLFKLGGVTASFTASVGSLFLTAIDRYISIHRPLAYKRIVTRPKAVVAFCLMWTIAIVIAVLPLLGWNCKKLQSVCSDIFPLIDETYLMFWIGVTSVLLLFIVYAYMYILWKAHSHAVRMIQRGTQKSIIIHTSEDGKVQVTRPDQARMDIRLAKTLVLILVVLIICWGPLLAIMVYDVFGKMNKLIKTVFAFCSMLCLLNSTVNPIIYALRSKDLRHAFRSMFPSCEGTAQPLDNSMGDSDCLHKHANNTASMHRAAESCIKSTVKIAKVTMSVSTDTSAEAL
pKi: −log10 of the molar value.

| compound | pKi |
| --- | --- |
| Cc1ccc2c(c1)oc1c(C(=O)NC3CC4CCC3(C)C4(C)C)nn(-c3ccc(Cl)cc3Cl)c12 (stereo not drawn) [Example 3.27] | 6.33 |
| Cc1ccc2c(c1)oc1c(C(=O)NN3CCOCC3)nn(-c3ccc(Cl)cc3Cl)c12 [Example 3.22] | 5.39 |
| Cc1ccc2c(c1)oc1c(C(=O)N[C@H]3C[C@@H](C)CC[C@@H]3C(C)C)nn(-c3ccc(Cl)cc3Cl)c12 [Example 3.24] | 7.42 |
